Test system: HIF-1α
Assay Info: HIF-1α transactivation assay in HaCaT-EPO-luc cells
Type: cell-based
Measurement Setup: 6 h, read-out: Potency EC50 HIF-1α
Experimental Readout: pEC50
Scale for pEC50: -log10 of concentration given in mol/L; no unit attached.

Compound String: C=C(C)[C@@H]1CCC(C)=C[C@H]1C1=C(O)C(=O)C(CCCCC)=C(NCC)C1=O
Experimental Readout: pEC50
Measured: 5.49

Compound String: C=C(C)[C@@H]1CCC(C)=C[C@H]1C1=C(O)C(=O)C(CCCCC)=C(NC)C1=O
Experimental Readout: pEC50
Measured: 5.40

Compound String: C=C(C)[C@@H]1CCC(C)=C[C@H]1C1=C(O)C(=O)C(CCCCC)=C(NC(C)C)C1=O
Experimental Readout: pEC50
Measured: 5.26

# get_value(readout='pEC50', item= "C=C(C)[C@@H]1CCC(C)=C[C@H]1C1=C(O)C(=O)C(CCCCC)=C(NCc2ccccc2)C1=O" )
5.85

# get_value(readout='pEC50', item= "C=C(C)[C@@H]1CCC(C)=C[C@H]1C1=C(O)C(=O)C(CCCCC)=C(NCC(C)C)C1=O" )
5.80

# get_value(readout='pEC50', item= "C=C(C)[C@@H]1CCC(C)=C[C@H]1C1=C(O)C(=O)C(CCCCC)=C(NCC(C)(C)C)C1=O" )
5.85

# get_value(readout='pEC50', item= "C=C(C)[C@@H]1CCC(C)=C[C@H]1C1=C(O)C(=O)C(CCCCC)=C(NCCCC)C1=O" )
5.72
